IC50 for assorted compounds
Biological target: Tumour suppressor protein p53/Mdm4 (Homo sapiens, UniProt O15151+P04637)
Sequence (P04637 whole entry): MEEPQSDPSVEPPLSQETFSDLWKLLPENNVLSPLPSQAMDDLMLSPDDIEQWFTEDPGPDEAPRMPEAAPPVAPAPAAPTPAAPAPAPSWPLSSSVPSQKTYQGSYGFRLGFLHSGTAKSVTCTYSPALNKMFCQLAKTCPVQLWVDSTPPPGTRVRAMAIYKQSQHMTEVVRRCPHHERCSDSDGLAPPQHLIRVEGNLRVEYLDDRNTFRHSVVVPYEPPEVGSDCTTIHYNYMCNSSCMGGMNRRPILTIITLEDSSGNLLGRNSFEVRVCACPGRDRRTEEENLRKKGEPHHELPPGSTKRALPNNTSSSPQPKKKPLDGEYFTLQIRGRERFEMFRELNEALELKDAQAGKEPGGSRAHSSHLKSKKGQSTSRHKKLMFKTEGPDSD
Sequence (O15151 whole entry): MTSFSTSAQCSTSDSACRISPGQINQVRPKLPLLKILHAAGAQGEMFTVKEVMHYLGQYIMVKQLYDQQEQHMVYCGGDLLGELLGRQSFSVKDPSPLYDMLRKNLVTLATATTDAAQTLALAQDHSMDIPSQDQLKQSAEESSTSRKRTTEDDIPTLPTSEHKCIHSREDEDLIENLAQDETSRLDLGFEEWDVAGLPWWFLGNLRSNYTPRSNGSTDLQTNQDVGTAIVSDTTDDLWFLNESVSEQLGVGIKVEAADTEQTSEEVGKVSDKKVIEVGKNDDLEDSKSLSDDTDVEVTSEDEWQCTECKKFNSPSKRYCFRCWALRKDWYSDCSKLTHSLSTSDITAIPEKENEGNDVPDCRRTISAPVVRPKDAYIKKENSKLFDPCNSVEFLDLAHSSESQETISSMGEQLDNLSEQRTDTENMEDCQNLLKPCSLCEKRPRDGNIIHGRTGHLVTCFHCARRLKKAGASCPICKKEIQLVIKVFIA
Test: Inhibition of Flag-tagged p53/GST-tagged Mdmx (unknown origin) expressed in Escherichia coli BL21 after 1 hr by ELISA microplate reader method
// return numeric value only (unit: µM, not printed)

Look over these answered cases.
IC50 reading for `CC(C)C(=O)Nc1ccccc1SC(=O)C(C)C` : 1.5

The recorded IC50 for entry `O=C(Nc1ccccc1S)c1ccc(Cl)cc1` equals 3.4

// sample `CC(C)C(=O)Nc1ccccc1S` , its IC50 was 6.3

Recorded IC50 (compound `O=C(Nc1ccccc1S)c1ccc(Cl)nc1` ): 8.9

Sure, the documented IC50 for `CC(C)C(=O)Sc1ccccc1NC(=O)c1ccccc1` is 4.6

With those in mind, consider the next compound.
Just so you know, measured IC50 for `O=C(Nc1ccccc1S)c1ccccc1` came out at 7.2
